Reference for the values: paper PMC5374982

# measurement.target: XlnB2-E87A (Streptomyces lividans, UniProt P26515, E128A)
# test.name: 1H–[…] HSQC NMR chemical shift titration
# Assay type: binding
pKd: −log10 of the molar value.

[
  {
    "molecule": "OC1OC[C@@H](O[C@@H]2OC[C@@H](O)[C@H](O)[C@H]2O)[C@H](O)[C@H]1O (stereo partly shown)",
    "pKd": 2.06
  }
]

----------
# measurement.target: xylanase B2 (XlnB2) (Streptomyces lividans)
pKd: −log10 of the molar value.

[
  {
    "compound": "OC1OC[C@@H](O[C@@H]2OC[C@@H](O)[C@H](O)[C@H]2O)[C@H](O)[C@H]1O (stereo partly shown) [X2, xylobiose]",
    "pKd": 2.15
  }
]
